Origin of measurements: ChEMBL document CHEMBL1129316

# experiment_summary: Oral Bioavailability was measured as Maximal observed concentration (Cmax) value at dose 125 mg/kg
# Assay type: ADME, organism-based
# Set-up: dose 125 mg/kg, route oral
# experimental_setup: in vivo
1 (yes) means recorded Cmax is 3 µM or above; 0 (no) means it is below 3 µM.

>>> label("COc1ccc(CN[C@@H](C(=O)NC2c3ccccc3C[C@H]2O)[C@H](O)[C@H](Cc2ccccc2)NC(=O)[C@@H](NC(=O)CCc2ccccc2O)C(C)(C)C)cc1 (stereo partly specified)")
"0 (no)"
>>> label("CCOc1ccc(CN[C@@H](C(=O)N[C@H]2c3ccccc3C[C@H]2O)[C@H](O)[C@H](Cc2ccccc2)NC(=O)[C@@H](NC(=O)OCc2ccccc2)C(C)(C)C)cc1")
"1 (yes)"
>>> label("CC(C)(C)[C@H](NC(=O)OCc1ccccc1)C(=O)N[C@@H](Cc1ccccc1)[C@@H](O)[C@@H](NCc1ccc(OCCO)cc1)C(=O)N[C@H]1c2ccccc2C[C@H]1O")
"0 (no)"
>>> label("COc1ccc(CN[C@@H](C(=O)NC2c3ccccc3C[C@H]2O)[C@H](O)[C@H](Cc2ccccc2)NC(=O)[C@@H](NC(=O)CCc2ccc(OC)c(O)c2)C(C)(C)C)cc1 (stereo partly specified)")
"0 (no)"
>>> label("COc1ccc(CN[C@@H](C(=O)NC(C(=O)NCc2nc3ccccc3[nH]2)C(C)C)[C@H](O)[C@H](Cc2ccccc2)NC(=O)OC(C)(C)C)cc1 (stereo partly specified)")
"1 (yes)"
>>> label("COc1ccc(CN[C@@H](C(=O)N[C@H]2c3ccccc3C[C@H]2O)[C@H](O)[C@H](Cc2ccccc2)NC(=O)[C@@H](NC(=O)OCc2ccccc2)C(C)(C)C)cc1")
"1 (yes)"

###

# experiment_summary: Oral Bioavailability was measured as area-under-curve(AUC) value at dose 125 mg/kg; b = No compound detectable in blood above the detection limit of 0.1 uM
# Assay type: ADME, organism-based
# experimental_setup: in vivo
measured_quantity: AUC

>>> result("CC(C)(C)[C@H](NC(=O)OCc1ccccc1)C(=O)N[C@@H](Cc1ccccc1)[C@@H](O)[C@@H](NCc1ccc(CNC(=O)OCc2ccccc2)cc1)C(=O)N[C@H]1c2ccccc2C[C@H]1O")
"No compound detectable"
>>> result("CC(C)(C)[C@H](NC(=O)OCc1ccccc1)C(=O)N[C@@H](Cc1ccccc1)[C@@H](O)[C@@H](NCc1ccc(OCCN2CCOCC2)cc1)C(=O)N[C@H]1c2ccccc2C[C@H]1O")
"No compound detectable"
>>> result("COc1ccc(CN[C@@H](C(=O)N[C@H]2c3ccccc3C[C@H]2O)[C@H](O)[C@H](Cc2ccccc2)NC(=O)[C@@H](NC(=O)CCc2nc3ccccc3[nH]2)C(C)(C)C)cc1")
"No compound detectable"
>>> result("CC(=O)NCc1ccc(CN[C@@H](C(=O)N[C@H]2c3ccccc3C[C@H]2O)[C@H](O)[C@H](Cc2ccccc2)NC(=O)[C@@H](NC(=O)OCc2ccccc2)C(C)(C)C)cc1")
"No compound detectable"

###

Listing of entries alongside the reported Ki.
# test_target: Human immunodeficiency virus type 1 protease (Human immunodeficiency virus 1)
# experiment_summary: Binding affinity against HIV-1 protease
measured_quantity: Ki (nM)

>>> numeric_readout("CC(C)(C)[C@H](NC(=O)OCc1ccccc1)C(=O)N[C@@H](Cc1ccccc1)[C@@H](O)[C@@H](NCc1ccc(CNC(=O)CCc2nc3ccccc3[nH]2)cc1)C(=O)N[C@@H]1c2ccccc2C[C@H]1O")
4.1
>>> numeric_readout("COc1ccc(CN[C@@H](C(=O)N[C@H]2c3ccccc3CC2O)[C@H](O)[C@H](Cc2ccccc2)NC(=O)[C@@H](NC(=O)OCc2ccccc2)C(C)C)cc1 (stereo partly specified)")
8.1
>>> numeric_readout("COc1ccc(CN[C@@H](C(=O)NC2c3ccccc3C[C@H]2O)[C@H](O)[C@H](Cc2ccccc2)NC(=O)[C@@H](NC(=O)/C=C/c2ccc(OC)cc2O)C(C)(C)C)cc1 (stereo partly specified)")
18
>>> numeric_readout("CC(=O)NCc1ccc(CN[C@@H](C(=O)N[C@H]2c3ccccc3C[C@H]2O)[C@H](O)[C@H](Cc2ccccc2)NC(=O)OC(C)(C)C)cc1")
70
>>> numeric_readout("COc1ccc(CN[C@@H](C(=O)N[C@H](C(=O)NCc2nc3ccccc3[nH]2)C(C)C)[C@H](O)[C@H](Cc2ccccc2)NC(=O)[C@@H](NC(=O)OCc2ccccc2)C(C)(C)C)cc1")
3.4
>>> numeric_readout("CC(=O)NCc1ccc(CN[C@@H](C(=O)N[C@H]2c3ccccc3C[C@H]2O)[C@H](O)[C@H](Cc2ccccc2)NC(=O)[C@@H](NC(=O)OCc2ccccc2)C(C)(C)C)cc1")
5.7
>>> numeric_readout("CC(C)(C)[C@H](NC(=O)OCc1ccccc1)C(=O)N[C@@H](Cc1ccccc1)[C@@H](O)[C@@H](NCc1ccc(OCCN2CCOCC2)cc1)C(=O)N[C@H]1c2ccccc2C[C@H]1O")
9.5
>>> numeric_readout("COc1ccc(CN[C@@H](C(=O)N[C@@H]2c3ccccc3C[C@H]2O)[C@H](O)[C@H](Cc2ccccc2)NC(=O)OC(C)(C)C)cc1")
65
>>> numeric_readout("COc1ccc(CN[C@@H](C(=O)NC2c3ccccc3C[C@H]2O)[C@H](O)[C@H](Cc2ccccc2)NC(=O)[C@@H](NC(=O)CCc2ccccc2O)C(C)(C)C)cc1 (stereo partly specified)")
13
>>> numeric_readout("COc1ccc(CN[C@@H](C(=O)N[C@@H]2c3ccccc3C[C@H]2O)[C@H](O)[C@H](Cc2ccccc2)NC(=O)C(CC(N)=O)NC(=O)OCc2ccccc2)cc1 (stereo partly specified)")
15
>>> numeric_readout("COc1ccc(CN[C@@H](C(=O)NC2c3ccccc3C[C@H]2O)[C@H](O)[C@H](Cc2ccccc2)NC(=O)[C@@H](NC(=O)CSc2nncn2C)C(C)(C)C)cc1 (stereo partly specified)")
5.8
